So I've got a bunch of compounds here, and I need their inhibition values.
TARGET_DESC: Virion infectivity factor (Human immunodeficiency virus type 1 group M subtype B (isolate BH10)) + Virion infectivity factor (Human immunodeficiency virus type 1 group M subtype B (isolate BRU/LAI)) + Virion infectivity factor (Human immunodeficiency virus type 1 group M subtype B (isolate PCV12)) + Virion infectivity factor (Human immunodeficiency virus type 1 group M subtype B (isolate HXB2)) + DNA dC->dU-editing enzyme APOBEC-3G (Homo sapiens) (UniProt P69720+P69721+P69722+P69723+Q9HC16)
TEST_DESCRIPTION: inhibitors of Vif binding to APOBEC3G peptide, primary screen, biochemical, TR-FRET, GST-Vif 1-94, biotin-A3G peptide, dose response retest (AID 1117319);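 note: Vif residues 1-94 fused to GST binding biotinylated APOBEC3G peptide 110-148; 0% = full assay without inhibitor and 100% = GST in place of GST-Vif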
EXPERIMENTAL_PARAMETERS: hits give high values
Out of some 260,000 compounds screened, about 1,500 (0.58%) were called active. Roughly 5% stayed inconclusive and do not appear here. A selection follows. Entries with a potency or affinity are not part of this list.
Expressed in %, but write only the number.

[in] Fill in the blank: the reported inhibition of COC(=O)C1=C(N)OC2=C(C(=O)CC(C)(C)C2)C1c1cccs1 (stereo unspecified) is ____.
[out] 12.5

[in] `COCCCN1C(=O)c2ccc(C(=O)NCc3ccco3)cc2C1=O` ?
[out] 1.46

[in] `COc1ccc(CCNC(=O)CN2C(=O)NC(c3ccccc3)(c3ccccc3)C2=O)cc1` ?
[out] 2.71

[in] `COc1ccc(OC)c(NC(=O)CCN2CCN(C)CC2)c1` ?
[out] 2.28

[in] `Cc1ccc(-c2nn[nH]n2)o1` ?
[out] -6.6

[in] `O=c1[nH]c2sc3c(c2c2nncn12)CCCC3` ?
[out] 24.3

[in] `COc1ccc(Cc2noc(CN3CCNC(=O)CC3)n2)cc1OC` ?
[out] 3.31

[in] CC(C)(C)c1ccc(N2C(=O)CC(C/C=C/c3ccccc3)C2=O)cc1 (stereo unspecified) ?
[out] -5.69

[in] `CCCN(CC(=O)Nc1cccc(S(N)(=O)=O)c1)CC(=O)Nc1ccc(F)c(F)c1F` ?
[out] 9.36

[in] COc1cc(C2CC(=O)c3c(O)cc(O)cc3O2)ccc1O (stereo unspecified) ?
[out] 9.19

[in] `Cn1nc(C(=O)Nc2ccccc2N2CCCC2)c2ccccc2c1=O` ?
[out] 1.83

[in] `CC(=O)c1cc2c(cc1NC(=O)c1cccc(S(=O)(=O)N3CCN(C)CC3)c1)OCO2` ?
[out] -12.7

[in] `c1ccc2nc(-c3ccc4c(c3)OCO4)ccc2c1` ?
[out] 5.74

[in] `O=c1cc(-c2ccccc2)c2c([nH]1)CCCC2` ?
[out] -2.63

[in] CCOC(=O)C1=C(N)OC2=C(C(=O)CCC2)C1c1cccs1 (stereo unspecified) ?
[out] 1.36

[in] CCOC(=O)c1[nH]c2cc(OC)c(OC)cc2c1NC(=O)CN1CCN(c2ccc(OC)cc2)C(C)C1 (stereo unspecified) ?
[out] 23

[in] `Cc1ccsc1C(=O)OCC(=O)Nc1cccc(S(=O)(=O)N2CCOCC2)c1` ?
[out] 2.2

[in] `COc1ccc(OC)c(-c2nc(C(N)=O)c3[nH]c(=O)n(-c4ccc(F)cc4)c3n2)c1` ?
[out] -0.73

[in] `Cc1nc2sc3c(c2c(=O)o1)CCC3` ?
[out] 11.5

[in] `Cc1cc[n+](CCC(=O)O)c2ccccc12` ?
[out] 27.6

[in] COc1ccc(NC(=O)CN(C)C(=O)C2CC(=O)N(c3cccc4ccccc34)C2)cc1 (stereo unspecified) ?
[out] 2.19

[in] CN(CCC#N)C(=O)CC1(Cc2ccccc2)CCOC(C)(C)C1 (stereo unspecified) ?
[out] -1.26

[in] `COc1ccc(OC)c(NC(=O)CCN2CCCCC2)c1` ?
[out] -3.02

[in] `COc1cccc(OC)c1C(=O)Nc1nc(-c2ccccc2)cs1` ?
[out] -5.24

[in] O=C(O)C1CCCCC1C(=O)Nc1nc(-c2cccs2)cs1 (stereo unspecified) ?
[out] -11.2

[in] `Cc1cccc(N(Cc2ccccc2F)S(C)(=O)=O)c1` ?
[out] 22.4

[in] `CCN(CC)S(=O)(=O)c1ccc(OCC(=O)NC(=O)Cc2ccccc2)c([N+](=O)[O-])c1` ?
[out] 1.51

[in] `CCCCC(=O)Nc1cccc(-c2csc(-c3ccccc3)n2)c1` ?
[out] -12.6

[in] `COc1ccc([C@H]2CC(=O)c3c(O)cc(O)cc3O2)cc1O` ?
[out] 9.99

[in] `O=C(NCCCN1CCOCC1)c1ccc2c(=O)n(Cc3ccccc3)c(=S)[nH]c2c1` ?
[out] -10.2

[in] `C=CCSC1=N/C(=C\c2ccsc2)C(=O)S1` ?
[out] 2.35

[in] `Cc1ccc(C)n1-c1ccsc1C(=O)CC#N` ?
[out] 22.9

[in] `CCOc1ccccc1NC(=O)Nc1cccc(S(N)(=O)=O)c1` ?
[out] 1.28

[in] `CC(=C\c1ccccc1)/C=C1/SC(=S)N(CCCC(=O)O)C1=O` ?
[out] 2.05

[in] COc1ccc(C2/C=C\CN(C(=O)C3CC3)[C@H](Cc3ccccc3)C(=O)N2Cc2ccc(F)cc2)cc1 (stereo partly specified) ?
[out] 7.45

[in] Nc1ccc(S(=O)C(F)(F)F)cc1 (stereo unspecified) ?
[out] -4.35

[in] O=C(NC(NC(=S)Nc1cccc(C(=O)O)c1)C(Cl)(Cl)Cl)OCc1ccccc1 (stereo unspecified) ?
[out] 16

[in] `Cc1nnc2ccc(-c3cccc(NS(C)(=O)=O)c3)nn12` ?
[out] 30.9

[in] `COc1ccc2cc(C#N)c(Nc3cccc(F)c3)nc2c1` ?
[out] -0.27

[in] `CCOc1c(OC(C)=O)ccc(/C=C2\N=C(SCC)SC2=O)c1[N+](=O)[O-]` ?
[out] 9.49

[in] `CC(C)(C)c1ccc(C(=O)N/N=C/c2ccc(OCCCF)cc2)cc1` ?
[out] -1.58

[in] `CCSC1=N/C(=C\c2ccc(-c3ccccc3[N+](=O)[O-])o2)C(=O)S1` ?
[out] 13.5

[in] `CN(C)c1ccc(C(=O)c2ccc(O)cc2O)cc1` ?
[out] -0.42

[in] `O=C(Nc1ccccc1Cl)Nc1ccnn1C1CCN(C(=O)c2cscn2)CC1` ?
[out] 5.94

[in] CC(c1cccs1)N(C)Cc1nc(CCc2ccccc2)no1 (stereo unspecified) ?
[out] 2.69

[in] `Cc1ccc(C)c2[nH]c(=O)c(CCNC(=O)c3cc4ccccc4o3)cc12` ?
[out] 24.9
